- System: Leishmania donovani
- measurement.description: Ld-cAxAm-TP-pMIC assay
- Assay type: cell-based
- assay.context: read-out: Ld-cAxAm-TP-pMIC pEC50 (converted)
# EC50 annotations
# number only, unit µM dropped from output

Worked cases, EC50 given:
>>> endpoint_value("O=C(NCC1(O)CCCCC1)c1cc(=O)c2cc(Cl)ccc2o1")
10
>>> endpoint_value("O=C(NCC1(O)CCCCC1)c1cc(=O)c2cc(O)cc(F)c2o1")
6.31
>>> endpoint_value("O=C(NCC1(O)CCC(F)(F)CC1)c1cc(=O)c2cc(F)ccc2o1")
12.6

q: Leishmania donovani / EC50 / O=C(NCC1CCCCC1)c1cc(=O)c2cc(F)cc(O)c2o1 : value?
a: 0.794

Just for reference, patent US11485720B2 is where these values come from.
